experimental_target: human recombinant OX2 (hOX2) receptor (Homo sapiens, UniProt O43614)
Sequence (O43614 whole entry): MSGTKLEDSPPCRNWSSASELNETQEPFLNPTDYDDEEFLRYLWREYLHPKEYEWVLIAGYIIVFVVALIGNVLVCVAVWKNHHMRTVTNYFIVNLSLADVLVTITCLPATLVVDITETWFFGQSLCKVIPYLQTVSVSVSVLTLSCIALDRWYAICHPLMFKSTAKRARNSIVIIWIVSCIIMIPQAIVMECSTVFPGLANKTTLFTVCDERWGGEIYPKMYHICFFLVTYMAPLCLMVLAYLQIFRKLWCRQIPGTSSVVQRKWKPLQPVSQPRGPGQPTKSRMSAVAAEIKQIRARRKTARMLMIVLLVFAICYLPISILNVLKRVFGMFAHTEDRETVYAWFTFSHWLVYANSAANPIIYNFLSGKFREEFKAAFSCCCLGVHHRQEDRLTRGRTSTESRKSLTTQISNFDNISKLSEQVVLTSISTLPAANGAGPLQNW
experiment: IP-1 accumulation assay (IP-One HTRF) in hOX2-CHO cells
assay_setup: 60 min at 37° C., mean of at least two independent experiments, read-out: EC50_OX2R Category
Measured EC50 of individual entries

Look over these answered cases.
compound	EC50
CCNC(=O)N1CCCC2(CCOC(=O)N2)C1CO[C@H]1CC[C@@H](c2ccccc2)CC1 (stereo partly drawn) [Example 11]	< 100 nM
O=C1COCC2(CCCN(C(=O)C3CC3)C2CO[C@H]2CC[C@@H](c3ccccc3)CC2)N1 (mixture of isomers)	100 to 1000 nM
CCNC(=O)N1[C@H](C)C[C@]2(COCC(=O)N2)[C@H]1CO[C@H]1CC[C@@H](c2ccccc2)CC1	> 10000 nM
O=C1NC2(CCCN(C(=O)OCC(F)F)C2CO[C@H]2CC[C@@H](c3ccccc3)CC2)CCO1 (mixture of isomers)	100 to 1000 nM
C[C@@H]1C[C@@]2(COCC(=O)N2)[C@H](CO[C@H]2CC[C@@H](c3ccccc3)CC2)N1c1nnnn1C	< 100 nM

Now consider the entry below.
## Task Look up EC50: COC(=O)N1CCCC2(CCC(=O)N2)C1Cc1cccc(-c2ccccc2)c1 (mixture of isomers)
## Result > 10000 nM

// provenance: patent US20240254143A1
